measured on: Protein farnesyltransferase (Bos taurus, UniProt P29702+P49355)
assay method text: Inhibition of bovine farnesyltransferase
Assay type: protein-complex assay
metric: pIC50
Recall that pIC50 is obtained by taking minus log10 of the concentration measured in molar.

Check out these entries, answers already filled in.
compound: Cn1c(=O)cc(-c2cccc(Cl)c2)c2cc(C(NC=O)c3cncn3Cc3ccc(C#N)cc3)ccc21 (centres undefined)
reported value: 8.68
--
compound: N#Cc1ccc(Cn2cncc2Cn2ccc3c(C#N)c(-c4cccc5ccccc45)ccc32)cc1
reported value: 9.82
--
compound: Cn1c(=O)cc(-c2cccc(Cl)c2)c2cc(Cn3cncc3Cn3ccc(C#N)c3)ccc21
reported value: 6.25
--
compound: N#Cc1cn(Cc2cncn2Cc2ccc3c(c2)OCO3)cc1-c1cccc2ccccc12
reported value: 8.21
--
compound: Cn1c(=O)cc(-c2cccc(Cl)c2)c2cc(Cn3cncc3Cc3ccc(C#N)cc3)ccc21
reported value: 8.14

Lookup: Item "N#Cc1ccc(Cn2cncc2Cn2ccc3cc(-c4cccc5ccccc45)ccc32)cc1" : provide pIC50
Found: 9.03

Lookup: Item "Cn1c(=O)cc(-c2cccc(Cl)c2)c2cc(C(=O)c3cncn3Cc3ccc(C#N)cc3)ccc21" : provide pIC50
Found: 7.54

Lookup: Item Cn1c(=O)cc(-c2cccc(Cl)c2)c2cc(Cn3cncc3C(O)c3ccc(C#N)cc3)ccc21 (centres undefined) : provide pIC50
Found: 7.36

Lookup: Item "Cn1c(=O)cc(-c2cccc(Cl)c2)c2cc(Cn3cncc3Cc3ccc(C#N)cc3)cnc21" : provide pIC50
Found: 8.00

Lookup: Item "N#Cc1ccc(Cn2cncc2Cn2cc(C#N)c(-c3cccc4ccccc34)c2)cc1" : provide pIC50
Found: 9.24

* * *

measured on: Protein farnesyltransferase (Bos taurus, UniProt P29702+P49355)
assay method text: Inhibition of bovine Farnesyltransferase
Assay type: protein-complex assay
metric: IC50
The answer should read as a number with its unit following.

Lookup: Item "Cn1c(=O)cc(-c2cccc(Cl)c2)c2cc(Cn3cncc3Cc3ccc(C#N)cc3)ccc21" : provide IC50
Found: 4.7 nM

* * *

measured on: Protein farnesyltransferase (Mus musculus) (UniProt Q61239+Q8K2I1)
assay method text: Percent inhibition of H-ras processing in transformed NIH3T3 cells at 100 nM
Format: functional, cell-based
metric: inhibition (%)
A number alone suffices; assume %.

Check out these entries, answers already filled in.
compound: Cn1cncc1[C@@](N)(c1ccc(Cl)cc1)c1ccc2c(c1)c(-c1cccc(Cl)c1)cc(=O)n2C
reported value: 1.6
//
compound: Cn1c(=O)cc(-c2cccc(Cl)c2)c2cc(C(O)c3cncn3Cc3ccc(C#N)cc3)ccc21 (stereo not drawn)
reported value: 32
//
compound: NC(=O)N1CCC(CC(=O)N2CCC([C@H]3c4ncc(Br)cc4CCc4cc(Cl)cc(Br)c43)CC2)CC1
reported value: 100
//
compound: Cn1c(=O)cc(-c2cccc(Cl)c2)c2cc(Cn3cncc3Cc3ccc(C#N)cc3)ccc21
reported value: 57
//
compound: Cn1c(=O)cc(-c2cccc(Cl)c2)c2cc(C(NC=O)c3cncn3Cc3ccc(C#N)cc3)ccc21 (stereo not drawn)
reported value: 28

Lookup: Item Cn1c(=O)cc(-c2cccc(Cl)c2)c2cc(C(N)c3cncn3Cc3ccc(C#N)cc3)ccc21 (stereo not drawn) : provide inhibition
Found: 42

Lookup: Item "Cn1c(=O)cc(-c2cccc(Cl)c2)c2cc(C(=O)c3cncn3Cc3ccc(C#N)cc3)ccc21" : provide inhibition
Found: 30

Lookup: Item "Cn1c(=O)cc(-c2cccc(Cl)c2)c2cc(Cn3cncc3Cc3ccc(C#N)cc3)cnc21" : provide inhibition
Found: 39

* * *

measured on: Geranylgeranyl transferase type I (Bos taurus, UniProt P29702+Q5EAD5)
assay method text: Inhibition of bovine Geranylgeranyltransferase
Assay type: protein-complex assay
metric: IC50 (µM)
A number alone suffices; assume µM.

Lookup: Look up and report IC50, with Geranylgeranyl transferase type I (Bos taurus, UniProt P29702+Q5EAD5) as system, for "Cn1c(=O)cc(-c2cccc(Cl)c2)c2cc(Cn3cncc3Cc3ccc(C#N)cc3)ccc21"
Found: 17

* * *

measured on: Geranylgeranyl transferase type I (Bos taurus, UniProt P29702+Q5EAD5)
assay method text: Inhibition of bovine geranylgeranyl transferase
Format: protein-complex assay
Recorded IC50 by entry

molecule: Cn1c(=O)cc(-c2cccc(Cl)c2)c2cc(Cn3cncc3C(O)c3ccc(C#N)cc3)ccc21 (centres undefined)
reported value: > 10 µM

molecule: N#Cc1cn(Cc2cncn2Cc2ccc3c(c2)OCO3)cc1-c1cccc2ccccc12
reported value: 0.52 µM

molecule: Cn1c(=O)cc(-c2cccc(Cl)c2)c2cc(C(=O)c3cncn3Cc3ccc(C#N)cc3)ccc21
reported value: < 10 µM

molecule: Cn1c(=O)cc(-c2cccc(Cl)c2)c2cc(C(O)c3cncn3Cc3ccc(C#N)cc3)ccc21 (centres undefined)
reported value: 17 µM

molecule: Cn1c(=O)cc(-c2cccc(Cl)c2)c2cc(C(NC=O)c3cncn3Cc3ccc(C#N)cc3)ccc21 (centres undefined)
reported value: > 10 µM

molecule: Cn1c(=O)cc(-c2cccc(Cl)c2)c2cc(Cn3cncc3Cc3ccc(C#N)cc3)cnc21
reported value: 4 µM

molecule: Cn1c(=O)cc(-c2cccc(Cl)c2)c2cc(C(N)c3cncn3Cc3ccc(C#N)cc3)ccc21 (centres undefined)
reported value: 22 µM

molecule: N#Cc1ccc(Cn2cncc2Cn2ccc3cc(-c4cccc5ccccc45)ccc32)cc1
reported value: 0.27 µM

Please examine the following record next.
Lookup: Item "N#Cc1ccc(Cn2cncc2Cn2ccc3c(C#N)c(-c4cccc5ccccc45)ccc32)cc1" : provide IC50
Found: 0.11 µM

* * *

Recorded pIC50 by entry
measured on: Geranylgeranyl transferase type I (Bos taurus, UniProt P29702+Q5EAD5)
assay method text: Inhibition of bovine geranylgeranyl transferase
Assay type: protein-complex assay
pIC50: −log10 of the molar value.

compound: N#Cc1ccc(Cn2cncc2Cn2cc(C#N)c(-c3cccc4ccccc34)c2)cc1
pIC50: 6.85

Lookup: Look up and report pIC50, with Geranylgeranyl transferase type I (Bos taurus, UniProt P29702+Q5EAD5) as system, for CC(=O)OC(c1ccc(C#N)cc1)c1cncn1Cc1ccc2c(c1)c(-c1cccc(Cl)c1)cc(=O)n2C (centres undefined)
Found: < 6.00

Lookup: Look up and report pIC50, with Geranylgeranyl transferase type I (Bos taurus, UniProt P29702+Q5EAD5) as system, for NC(=O)N1CCC(CC(=O)N2CCC([C@H]3c4ncc(Br)cc4CCc4cc(Cl)cc(Br)c43)CC2)CC1 [LONAFARNIB]
Found: < 5.00

Lookup: Look up and report pIC50, with Geranylgeranyl transferase type I (Bos taurus, UniProt P29702+Q5EAD5) as system, for "Cn1c(=O)cc(-c2cccc(Cl)c2)c2cc(Cn3cncc3Cc3ccc(C#N)cc3)ccc21"
Found: < 5.00

* * *

Recorded EC50 by entry
measured on: Protein farnesyltransferase (Mus musculus, UniProt Q61239+Q8K2I1)
assay method text: Inhibition of H-ras processing in transformed NIH3T3 cells
A number alone suffices; assume nM.

smiles input: N#Cc1ccc(Cn2cncc2Cn2ccc3c(C#N)c(-c4cccc5ccccc45)ccc32)cc1
EC50, nM: 2.1
--
smiles input: N#Cc1ccc(Cn2cncc2Cn2ccc3cc(-c4cccc5ccccc45)ccc32)cc1
EC50, nM: 5.7

Please examine the following record next.
Lookup: Look up and report EC50, with Protein farnesyltransferase (Mus musculus, UniProt Q61239+Q8K2I1) as system, for "N#Cc1ccc(Cn2cncc2Cn2cc(C#N)c(-c3cccc4ccccc34)c2)cc1"
Found: 34

* * *

measured on: Protein farnesyltransferase (Bos taurus, UniProt P29702+P49355)
assay method text: Inhibition of bovine farnesyltransferase
Type: protein-complex assay
metric: IC50 (nM)
A number alone suffices; assume nM.

Lookup: Item Cn1c(=O)cc(-c2cccc(Cl)c2)c2cc(C(O)c3cncn3Cc3ccc(C#N)cc3)ccc21 (centres undefined) : provide IC50
Found: 4.7

Lookup: Item Cn1cncc1C(OCc1ccc2c(c1)c(-c1cccc(Cl)c1)cc(=O)n2C)c1ccc(C#N)cc1 (centres undefined) : provide IC50
Found: 80

Lookup: Item "Cn1c(=O)cc(-c2cccc(Cl)c2)c2cc(COCc3cncn3Cc3ccc(C#N)cc3)ccc21" : provide IC50
Found: 89

Lookup: Item Cn1c(=O)cc(-c2cccc(Cl)c2)c2cc(C(N)c3cncn3Cc3ccc(C#N)cc3)ccc21 (centres undefined) : provide IC50
Found: 3.8

* * *

Recorded IC50 by entry
measured on: Protein farnesyltransferase (Bos taurus, UniProt P29702+P49355)
assay method text: Inhibition of bovine farnesyltransferase
Type: protein-complex assay

Lookup: Item "Cn1c(=O)cc(-c2cccc(Cl)c2)c2cc(Cn3cncc3Cn3ccc(C(=O)N4CCOCC4)c3)ccc21" : provide IC50
Found: > 1000 nM

Lookup: Item CC(=O)OC(c1ccc(C#N)cc1)c1cncn1Cc1ccc2c(c1)c(-c1cccc(Cl)c1)cc(=O)n2C (stereo not given) : provide IC50
Found: > 1000 nM

Lookup: Item "Cn1c(=O)cc(-c2cccc(Cl)c2)c2cc(Cn3cncc3COc3ccc(C#N)cc3)ccc21" : provide IC50
Found: > 1000 nM

Lookup: Item "Cn1c(=O)cc(-c2cccc(Cl)c2)c2cc(Cn3cncc3COCc3ccc(C#N)cc3)ccc21" : provide IC50
Found: > 1000 nM

Lookup: Item "Cn1c(=O)cc(-c2cccc(Cl)c2)c2cc(Cn3cncc3Cn3ccc(=O)cc3)ccc21" : provide IC50
Found: > 1000 nM
